- Test system: common ragweed (Ambrosia artemisizfolia L., AMBEL)
- PROTOCOL DETAILS: Post-emerge test, greenhouse herbicide activity screening
- Type: in vivo
- CONDITION CONTEXT: 250 g ai/ha; phytotoxicity rating 0-100 (0 no damage, 100 complete death), 14 days after application
- Experimental: A standard greenhouse herbicide activity screening system was used to evaluate the herbicidal efficacy and crop safety of these test compounds. […] At 14 days after application of the test materials, phytotoxicity ratings were recorded. […]

COMPOUND SMILES: COc1c(Cl)cc(F)c(-n2c(=O)cc(C(F)(F)F)n(C)c2=O)c1NS(=O)(=O)c1ccc(C)cc1
EXPERIMENTAL SYSTEM: common ragweed (Ambrosia artemisizfolia L., AMBEL)
Post-emerge Herbicidal Activity AMBEL: 0

COMPOUND SMILES: COc1c(Cl)cc(F)c(-n2c(=O)cc(C(F)(F)F)n(C)c2=O)c1NC(=O)c1ccc(C(C)(C)C)cc1
EXPERIMENTAL SYSTEM: common ragweed (Ambrosia artemisizfolia L., AMBEL)
Post-emerge Herbicidal Activity AMBEL: 10

COMPOUND SMILES: COc1c(Cl)cc(F)c(-n2c(=O)cc(C(F)(F)F)n(C)c2=O)c1N=C(Cl)C(Cl)(Cl)Cl
EXPERIMENTAL SYSTEM: common ragweed (Ambrosia artemisizfolia L., AMBEL)
Post-emerge Herbicidal Activity AMBEL: 70

COMPOUND SMILES: CCOC(=O)CC(=O)Nc1c(OC(=O)CC(=O)OCC)c(Cl)cc(F)c1-n1c(=O)cc(C(F)(F)F)n(C)c1=O
EXPERIMENTAL SYSTEM: common ragweed (Ambrosia artemisizfolia L., AMBEL)
Post-emerge Herbicidal Activity AMBEL: 100

COMPOUND SMILES: COc1c(Cl)cc(F)c(-n2c(=O)cc(C(F)(F)F)n(C)c2=O)c1[N+](=O)[O-]
EXPERIMENTAL SYSTEM: common ragweed (Ambrosia artemisizfolia L., AMBEL)
Post-emerge Herbicidal Activity AMBEL: 30

COMPOUND SMILES: COc1c(Cl)cc(F)c(-n2c(=O)cc(C(F)(F)F)n(C)c2=O)c1N1CCCC1
EXPERIMENTAL SYSTEM: common ragweed (Ambrosia artemisizfolia L., AMBEL)
Post-emerge Herbicidal Activity AMBEL: 30

COMPOUND SMILES: COC(=O)C(=O)Nc1c(OC)c(Cl)cc(F)c1-n1c(=O)cc(C(F)(F)F)n(C)c1=O
EXPERIMENTAL SYSTEM: common ragweed (Ambrosia artemisizfolia L., AMBEL)
Post-emerge Herbicidal Activity AMBEL: 40

###

Listing of recorded Pre-emerge Herbicidal Activity ABUTH (phytotoxicity rating, scale 0-100) by entry.
- Tested on: velvetleaf (Abutilon theophrasti, ABUTH)
- PROTOCOL DETAILS: Pre-emerge test, greenhouse herbicide activity screening
- Format: in vivo
- CONDITION CONTEXT: 63 g ai/ha; pre-emerge; rated 14 days after application; 0 = no damage, 100 = complete death
RECORDED METRIC: Pre-emerge Herbicidal Activity ABUTH (phytotoxicity rating, scale 0-100)

COMPOUND: CCOC(=O)COc1c(Cl)cc(F)c(-n2c(=O)cc(C(F)(F)F)n(C)c2=O)c1N [Compound 1-59]
EXPERIMENTAL SYSTEM: velvetleaf (Abutilon theophrasti, ABUTH)
MEASURED: 100
--
COMPOUND: COc1c(Cl)cc(F)c(-n2c(=O)cc(C(F)(F)F)n(C)c2=O)c1NC(=O)CC#N [2-14]
EXPERIMENTAL SYSTEM: velvetleaf (Abutilon theophrasti, ABUTH)
MEASURED: 90
--
COMPOUND: CCc1ccc(C(=O)Nc2c(OCC#N)c(Cl)cc(F)c2-n2c(=O)cc(C(F)(F)F)n(C)c2=O)cc1 [2-28]
EXPERIMENTAL SYSTEM: velvetleaf (Abutilon theophrasti, ABUTH)
MEASURED: 100
--
COMPOUND: Cc1c(Cl)cc(F)c(-n2c(=O)cc(C(F)(F)F)n(C)c2=O)c1N [Compound 1-37]
EXPERIMENTAL SYSTEM: velvetleaf (Abutilon theophrasti, ABUTH)
MEASURED: 100
--
COMPOUND: COc1c(Cl)cc(F)c(-n2c(=O)cc(C(F)(F)F)n(C)c2=O)c1N=CN(C)C [Compound 1-31]
EXPERIMENTAL SYSTEM: velvetleaf (Abutilon theophrasti, ABUTH)
MEASURED: 100
--
COMPOUND: C#CCOc1c(Cl)cc(F)c(-n2c(=O)cc(C(F)(F)F)n(C)c2=O)c1N [Compound 1-19]
EXPERIMENTAL SYSTEM: velvetleaf (Abutilon theophrasti, ABUTH)
MEASURED: 100
--
COMPOUND: COc1c(Cl)cc(F)c(-n2c(=O)cc(C(F)(F)F)n(C)c2=O)c1NC(=O)c1cccc(C)c1 [2-23]
EXPERIMENTAL SYSTEM: velvetleaf (Abutilon theophrasti, ABUTH)
MEASURED: 100
--
COMPOUND: Cn1c(C(F)(F)F)cc(=O)n(-c2c(F)cc(Cl)c(OC3CCCC3)c2N)c1=O [Compound 1-21]
EXPERIMENTAL SYSTEM: velvetleaf (Abutilon theophrasti, ABUTH)
MEASURED: 70
--
COMPOUND: COc1c(Cl)cc(F)c(-n2c(=O)cc(C(F)(F)F)n(C)c2=O)c1N(C(=O)C=C(C)C)C(=O)C=C(C)C [2-8]
EXPERIMENTAL SYSTEM: velvetleaf (Abutilon theophrasti, ABUTH)
MEASURED: 0
--
COMPOUND: Cn1c(C(F)(F)F)cc(=O)n(-c2c(F)cc(Cl)c(OCc3ccccc3)c2N)c1=O [Compound 1-22]
EXPERIMENTAL SYSTEM: velvetleaf (Abutilon theophrasti, ABUTH)
MEASURED: 100
--
COMPOUND: COC(=O)C=CCOc1c(Cl)cc(F)c(-n2c(=O)cc(C(F)(F)F)n(C)c2=O)c1N [Compound 1-20]
EXPERIMENTAL SYSTEM: velvetleaf (Abutilon theophrasti, ABUTH)
MEASURED: 100
--
COMPOUND: COc1c(Cl)cc(F)c(-n2c(=O)c([N+](=O)[O-])c(C(F)(F)F)n(C)c2=O)c1[N+](=O)[O-] [Compound 1-9]
EXPERIMENTAL SYSTEM: velvetleaf (Abutilon theophrasti, ABUTH)
MEASURED: 100
--
COMPOUND: CCn1c(C(F)(F)F)cc(=O)n(-c2c(F)cc(Cl)c(OC)c2N)c1=O [Compound 1-15]
EXPERIMENTAL SYSTEM: velvetleaf (Abutilon theophrasti, ABUTH)
MEASURED: 20
--
COMPOUND: COc1c(Cl)cc(F)c(-n2c(=O)cc(C(F)(F)F)n(C)c2=O)c1NS(=O)(=O)c1ccc(C)cc1 [2-26]
EXPERIMENTAL SYSTEM: velvetleaf (Abutilon theophrasti, ABUTH)
MEASURED: 0
--
COMPOUND: CCCc1ccc(C(=O)N(C(=O)c2ccc(CCC)cc2)c2c(OC)c(Cl)cc(F)c2-n2c(=O)cc(C(F)(F)F)n(C)c2=O)cc1 [2-29]
EXPERIMENTAL SYSTEM: velvetleaf (Abutilon theophrasti, ABUTH)
MEASURED: 100
--
COMPOUND: Cn1c(C(F)(F)F)cc(=O)n(-c2c(F)cc(Cl)c(OC(F)F)c2N)c1=O [Compound 1-38]
EXPERIMENTAL SYSTEM: velvetleaf (Abutilon theophrasti, ABUTH)
MEASURED: 100
